Biological target: T1, HaloTag-ATRX ADD domain (163-292)
T1 chain: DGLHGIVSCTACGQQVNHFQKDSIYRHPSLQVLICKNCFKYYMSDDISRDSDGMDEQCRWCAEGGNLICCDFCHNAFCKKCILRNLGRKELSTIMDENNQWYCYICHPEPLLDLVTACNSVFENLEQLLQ
Assay: peptide microarray binding signal (635 nm), min-max normalized on array (fraction of array maximum); higher = stronger binding
Conditions: peptide region: Unmod H1 variant; binder concentration: 500 nM
Give measured peptide microarray binding signal for each item. Keep answers brief.
Number only, please.

Query: Which peptide microarray binding signal value belongs to AGKKAKKPAKAAA [Unmod H1 variant A G K K A K K P A K A A A] ?
Result: 0.0114

Query: Which peptide microarray binding signal value belongs to PKKSVAFKKTKKE [Unmod H1 variant P K K S V A F K K T K K E] ?
Result: 0.00867

Query: Which peptide microarray binding signal value belongs to KSSKNPKKPKTVK [Unmod H1 variant K S S K N P K K P K T V K] ?
Result: 0.0061

Query: Which peptide microarray binding signal value belongs to AKAVKPKAAKPKT [Unmod H1 variant A K A V K P K A A K P K T] ?
Result: 0.00791

Query: Which peptide microarray binding signal value belongs to KAASGEAKPKAKK [Unmod H1 variant K A A S G E A K P K A K K] ?
Result: 0.0245

Query: Which peptide microarray binding signal value belongs to KAKPVKASKPKKA [Unmod H1 variant K A K P V K A S K P K K A] ?
Result: 0.00971

Query: Which peptide microarray binding signal value belongs to YDVEKNNSRIKLG [Unmod H1 variant Y D V E K N N S R I K L G] ?
Result: 0.0175

Query: Which peptide microarray binding signal value belongs to LNKKASSVETKPG [Unmod H1 variant L N K K A S S V E T K P G] ?
Result: 0.0256

Query: Which peptide microarray binding signal value belongs to ASAAPEKPLAGKK [Unmod H1 variant A S A A P E K P L A G K K] ?
Result: 0.0163

Query: Which peptide microarray binding signal value belongs to KPKTAKPKAAKPK [Unmod H1 variant K P K T A K P K A A K P K] ?
Result: 0.00857

Query: Which peptide microarray binding signal value belongs to PKKAKKPAAAAGA [Unmod H1 variant P K K A K K P A A A A G A] ?
Result: 0.00771

Query: Which peptide microarray binding signal value belongs to SETVPPAPAASAA [Unmod H1 variant S E T V P P A P A A S A A] ?
Result: 0.00691

Query: Which peptide microarray binding signal value belongs to KAAAASKKKPAGP [Unmod H1 variant K A A A A S K K K P A G P] ?
Result: 0.0113

Query: Which peptide microarray binding signal value belongs to SETAPAAPAAPAP [Unmod H1 variant S E T A P A A P A A P A P] ?
Result: 0.00995

Query: Which peptide microarray binding signal value belongs to GAAKRKASGPPVS [Unmod H1 variant G A A K R K A S G P P V S] ?
Result: 0.00757
